# Measured On: HCV polymerase (NS5B) type 1a (Hepatitis C virus genotype 1a, UniProt P26664)
# Construct: made in house; host or cells: Escherichia coli (by the 'similar method' of the 1b enzyme)
# Experiment Notes: Assay of enzyme (HCV polymerase) inhibitory activity, type 1a enzyme
# Assay type: biochemical, HCV type 1a (cloned from the blood of patients)
# Test Conditions: HCV polymerase inhibitory activity (IC50), 1a, type 1a enzyme 1.5 μg/ml, 25° C., 60 min
Where a name gives a salt, the structure may show the parent alone.
Recorded IC50 by entry

> print(dat)
                                   molecule  measured.value
1  CC(C)c1ccc(CNC(=O)[C@H]2CN(c3cnc(N)cn3)CCN2S(=O)(=O)c2ccc(C(F)(F)F)cc2)cc1  100 to 1000 nM
2  CC(=O)N1CCN(S(=O)(=O)c2ccc(C(C)C)cc2)[C@@H](C(=O)NCc2ccc(CO)cc2)C1       > 1000 nM
3  CCCc1ccc(S(=O)(=O)N2CCN(c3nc(C)c(C(N)=O)s3)C[C@@H]2C(=O)NCc2ccc(C(C)C)cc2)cc1        < 100 nM
4  CC(C)(C)c1ccc(CNC(=O)[C@H]2CN(c3nc(CO)c(C(=O)O)s3)CCN2S(=O)(=O)c2ccc(OC(F)(F)F)cc2)cc1  100 to 1000 nM

(Q) Query: IC50; subject: CN(C)c1ccc(CNC(=O)C2CN(C(=O)CCN)CCN2S(=O)(=O)c2ccc(I)cc2)cc1 (stereo not drawn) [Example 89, hydrochloride]
(A) > 1000 nM

(Q) Query: IC50; subject: CCCn1ccc(CNC(=O)[C@H]2CN(C(C)=O)CCN2S(=O)(=O)c2ccc(OC(F)(F)F)cc2)cc1=O
(A) 100 to 1000 nM
